# System: MS2 coat protein
# assay_overview: apparent KD of MS2 coat protein; higher = weaker reporter binding
# condition_summary: Eterna round: R107; input ligand: tryptophan 2.4 mM
quantity_name: apparent KD of MS2 coat protein (µM)

{"columns": ["sequence_input", "u", "test_result"],
 "data": [
  ["AUUAAAAGUUGUGAUACCAGACGAACAUGAGGAUCACCCAUGUAACUUUUAGGUGUUGUAGUCCCUUGGCAGCACUAUGUAGUUA [JR_SSTheophyB_Sub012]", "µM", 0.0401],
  ["AUAACAUGAGGAUCACCCAUGUUGAGUGAUACCAGACUAUGUAAUGUCCCUUGGCAGCACAAGUAAAGUUAUAAAUAAUGAUAGA [#12 SameState-TheophyllineA]", "µM", 0.0472],
  ["CCUGCGUUUCUUUUCUUUCGCAGGAAUGAUACCAGUAGGGAAACCUACCCUUGGCAGCAUGGGACAUGAGGAUCACCCAUGUUUU [SSThA NP+V+V2 #4]", "µM", 0.181],
  ["UGUAUGGACUGAAGGAGCGGGUUGAUAACUUGAGGAUCACCCAGGUAAAAGGCGAAAGCCACCCAGGUAGGUCGCAGUCCAUACU", "µM", 0.0662],
  ["CAUAUUGUAACUGAUACCAGUGUACUGACAUGAGGAUCACCCAUGUUGGGUUUUGUUGUACACCCUUGGCAGCAGAAUCAAUAUG [AstrosExyTheB#4]", "µM", 0.0604],
  ["AGACAUGAGGAUCACCCAUGUAGUAUGGAUACCAGAUCCAGAUUUAUCCCUUGGCAGCUGUGGUACAGUGAUGGAUUGCUCCUAG [Exclusion - Theophylline A (Freestyle 9)]", "µM", 0.0327],
  ["ACGAACUGUAGUGAUACCAGACGUACAUGAGGAUCACCCAUGUUGUAAACAUGGUGAAUAGUCCCUUGGCAGCACAGUUAGUUCG [#11 Exclusion-TheophyllineB]", "µM", 0.299],
  ["GAGUUCCUGAGAGAUACCAGUGAGGCCACAUGAGGAUCACCCAUGUCCCUCACUCCGGCCCACCCUUGGCAGCUCGAAAGAUAUU [Exclusion Theophylline B GF 22]", "µM", 0.0121],
  ["UGUCGAAACUGAAGGAGCGAGAUGACAACAUUGGGUCUAACAUGAGGAUCACCCAUGUAAUCUCAGGUAGGUCGCAGUGACAAAA [Exclusion Arginine B GF 15]", "µM", 0.121],
  ["UGUUUGGUGCGCGAGUGUUGGAUAAAUGAUACCAGUGUAGAUGUACGCCCUUGGCAGCGUAUCCGAACAUGAGGAUCACCCAUGU [5.aB]", "µM", 0.0363],
  ["ACGAUAGCACACGAGGAUCACCCGUGUGAUACCAGCCUGGAAACAGGCCCUUGGCAGCACACAAUAAAAGUGUAACUAUCGAAUA [TheoAX4 #MicroSwitchBubble #AlternativeMS2]", "µM", 0.0561],
  ["GGUCUCUGGAGCGAUACCAGCUUAAUCGUACUGGCCAGGUACAUGAGGAUCACCCAUGUAAGCCCUUGGCAGCGCUCCAGAGACC [#1 Exclusion - Theophylline B Attempt #11 (HarryS)]", "µM", 0.0105],
  ["GGAUAGGACACGGCCGCCACUACCUAGGAUACUAGCAACAUUUGGGUACAUGAGGAUCACCCAUGUAGGACCGGGUGUCCUAUCG", "µM", 0.124],
  ["AGUACACGAACGGAUACCAGCCGGACAUGAGGAUCACCCAUGUCCUACCUCUGUUCGGUUGGCCCUUGGCAGCCGUUCGUGUACA [Omei Theo B SS A v8]", "µM", 0.208],
  ["GAAUAUUACAUGAGGAUCACCCAUGUAGAUACCAGCCUUGAUUGUGGCCCUUGGCAGCUACGCCGUGAAUGCCUCAGUUGCUUAC [Atidi]", "µM", 0.072],
  ["UCUUGAGUUUCGGAUACCAGUGUUGUCGAUACAUGAGGAUCACCCAUGUUAGAGGAUGUACACCCUUGGCAGCCGGGUGUGGCGG [tftmullin]", "µM", 0.0155],
  ["AACAUGAGGGCGGCCGCCACUCCAUGAACAUGAGGAUCACCCAUGUUGAGGAUCACCCAUGUUGUGAGGACCGGGCCACAUGAGG [Exclusion Tryptophan B 3]", "µM", 0.0896],
  ["UUCAGCUAGUCGGCCGCCACUACACGAGGAUCACCCGUGUUCCUAAAACACUGCUUCGGCAGUGGUAGGACCGGGACUAGCUGAG", "µM", 0.123],
  ["AUGCGGUGCGGAAGGAGCGAGUUUGCCUAUUACAUGAGGAUCACCCAUGUGGGUAAUGGGACUCAGGUAGGUCGCCGUUGUCGCA [Same State Arginine B GF 28]", "µM", 0.0501],
  ["AUAACUGUCAAGGAAGGUGAUCCAGCAGAUACCAGCUAGGAAACUAGCCCUUGGCAGCUGCAACAUGAGGAUCACCCAUGUAAUA [(T)'-(M)'-(T1)-(T2)-(M1)-(M2)_Design9]", "µM", 0.0593],
  ["CCGUUAAAAUUCCAUUAUACAAUACCUGAAGGAGCGUAGGAAACUACAGGUAGGUCGCAGAUACAUGAGGAUCACCCAUGUACGG [SSAA #13]", "µM", 0.0173],
  ["UCCUCCUCCGCAAGGAGGAGGAGUUGCGAUACCAGCACGGCAACGUGCCCUUGGCAGCGCACAUGAGGAUCACCCAUGUCAUGUU [#1 Exclusion - Theophylline A Attempt #10 (HarryS)]", "µM", 0.0188],
  ["AUCGUACCUGAUGAUACCAGCAAGUGAUCAUAACAUGAGGAUCACCCAUGUAAUCAGUGAUGCCCUUGGCAGCAUAGUCGAUACA [Same State - Theophylline B (Freestyle 5)]", "µM", 0.166]
]}

----------
# Test system: MS2 coat protein
# assay_overview: apparent KD of MS2 coat protein; higher = weaker reporter binding
# condition_summary: Eterna round: R101; input ligand: FMN 200 uM
# label = T if apparent KD of MS2 coat protein >= 10 nM else F

{"columns": ["sequence_input", "class_label"],
 "data": [
  ["AAAGAUUUUUAAGGAUAUGACUCCGAAACGGAGUCAGAAGGUGAGGAUCACCCAUCUAGCUCAGGGUCGAAAGACCCUGAGCAA [#SharedSequence - ExNG1-15] (puzzle (switch architecture): Exclusion NG 1)", "T"],
  ["CUUACUUUGUAGAAGGGUGACAUGAGGAUCACCCAUGUGCGUCGCCUGGAAGACCAGGGUACGCCACAGGAUAUACAAAGUAAG [Gesoesla] (puzzle (switch architecture): Inverted Same State NG 2)", "T"],
  ["ACACAUGAGGAUCACCCAUGUAGCCGGCGUCUGCGCCAGCCACAGGAUAUACGGCAACACAAGCCGUAGAAGGGUGAUAAACAC [Lalearledi] (puzzle (switch architecture): Same State NG 3)", "T"],
  ["CGCAUAGACAUGAGGAUCACCCAUGUAUAAAUAGGAUUAACGUAGGAUAUGCAGAAGAUUAAAGUGCAGAAGGACGGCUUUGCG [JR #DistanceFar #NP SSNG3 Sub070] (puzzle (switch architecture): Same State NG 3)", "F"],
  ["AGAGCUGCUCAGAAGGAGGAUCACCCUUUCGAAAGAAAUACGGAGGCUGAAAAGCCUCCGAGAUUUUAGGAUAUGAGCAGCUCA [#SharedSequence - IExNG2: 8] (puzzle (switch architecture): Inverted Exclusion NG 2)", "T"],
  ["UCUUAAUUGUAGAAGGGUGACAUGAGGAUCACCCAUGUGCACGCGCGAUUUACGGCGCGCGUGCCACAGGAUAUACAGUUGGGU [Erinquve] (puzzle (switch architecture): Inverted Same State NG 2)", "T"],
  ["UCAUUUAUCACAGGAUAUAUUAGUAUACAGUUGUUUGGUUAUUACAUAUUAAUAGAAGGGUGAAACAUGAGGAUCACCCAUGUA [S-loop S-stateNG1 03] (puzzle (switch architecture): Small Loop Same State NG 1)", "T"],
  ["GGAGAAACAUGAGGAUCACCCAUGUAGGAUAUCGGGCCCGGGCCCGGCGAAAGCCGGGCCCGGGACGAGAAGGGCGUAAACACC [#LOL] (puzzle (switch architecture): Small Loop Exclusion NG 3)", "F"],
  ["AUCAGCUCGUGAGGAUAUACGUCACUGCGUCAGCAGUGUGGUAAGAUCACAUGAGGAUCACCCAUGUAGAAGGCACGAGCUGAU [#FlippingAptamerGcClosingBasepair - Ex NG2 #82] (puzzle (switch architecture): Exclusion NG 2)", "T"]
]}

----------
# Test system: MS2 coat protein
# assay_overview: apparent KD of MS2 coat protein; higher = weaker reporter binding
# condition_summary: Eterna round: R107; input ligand: none
# label = 1 if apparent KD of MS2 coat protein >= 40 nM else -1

{"columns": ["sequence_input", "class_label"],
 "data": [
  ["GAACAUAAGGAUAGUAUAAUGACUACAGAAGGAGCGUCAGGAAGGACAGGUAGGUCGCUGGAAGACAUGAGGAUCACCCAUGUUU [Arg A SS t2]", -1],
  ["GAUAUAUAACGAAGGAGCGGCCCUUGAUCCUCAUGAGACAUGAGGAUCACCCAUGUCUCGGGCCAGGUAGGUCGCGUUAUAUAUC [Astros-omei-mod]", -1],
  ["CUGGACAUGAGGAUCACCCAUGUAAAUCCUCGAGGACCGGUACGGCCGCCACUCGAACGAGUGGCGCGCGAGCGCGCGCUCGCGC [aJa]", 1],
  ["ACAUUUAACUGAAGGAGCGUGAUAUACAUGAGGAUCACCCAUGUGUCUUACAUGAAUAAUUCACAGGUAGGUCGCAGACUAAUGA [JR_ExcArginiB_Sub009]", -1],
  ["AUACAUGAGGAUCACCCAUGUUAUAGUGAAGGAGCGACGUUUAUGUCAGGUAGGUCGCACUGUUGUUUAAUGAUUCUUGGAUCUU [#21 Exclusion - Arginine A]", -1],
  ["UGUAUGGACUGAAGGAGCGGUAGAUAACUUGAGGAUCACCCAGGUAAUAAGGCGAAAGCCUACCAGGUAGGUCGCAGUCCAUACU", 1]
]}
